# test summary: chemical genetic growth profiling, strain panel (AID 1159580);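 further: tested at 20 µM; growth read once vehicle control cultures reached saturation at 30 °C; 1 = growth at the plate median or of vehicle wells; lower values mean less growth of the strain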
# experimental setup: S. cerevisiae deletion strains, growth OD, locus YCL069W, strain vba3, hits give low values
Screen size: about 5,500 compounds; about 2,000 (36%) were called active. Not shown: some 18% with an inconclusive outcome. The list shows a part of the results.
assay endpoint: normalized growth

# molecule, assay endpoint, observed value
measured = [
    ("NS(=O)(=O)c1cc(C2(O)NC(=O)c3ccccc32)ccc1Cl (stereo not given)", "normalized growth", 0.999),
    ("CN[C@@H]1[C@@H](O)C(OC2[C@@H](N)C[C@@H](N)[C@H](O[C@H]3O[C@H](C(C)O)[C@@H](O)[C@H](O)[C@H]3N)[C@H]2O)OC[C@]1(C)O (stereo not given in full)", "normalized growth", 0.966),
    ("CC(CC(O)C1OC1(C)C)[C@@H]1CCC2(C)C3=CCC4C(C)(C)C(=O)CCC4(C)C3CC[C@@]12C (stereo not given in full)", "normalized growth", 0.995),
    ("CC(C1OC(C)(C)C(O)C1O)[C@@H]1CC[C@]2(C)C3=CCC4C(C)(C)C(=O)CC[C@]4(C)C3CC[C@@]12C (stereo not given in full)", "normalized growth", 0.994),
    ("COc1cc(O)c2c(=O)c(O)c(-c3ccc(O)c(O)c3)oc2c1", "normalized growth", 0.846),
    ("CCc1cc(C(N)=S)ccn1", "normalized growth", 0.991),
    ("OC1CC2CCCC(C1)N2Cc1ccccc1 (stereo not given)", "normalized growth", 1),
    ("CNC(=O)Oc1cccc2c1OC(C)(C)O2", "normalized growth", 0.998),
    ("CC(C)(C)NCC(O)c1cc(Cl)c(N)c(Cl)c1 (stereo not given)", "normalized growth", 0.992),
    ("CC(C)(C)NCC(O)c1cc(O)cc(O)c1 (stereo not given)", "normalized growth", 0.988),
]

----------
# test summary: chemical genetic growth profiling, strain panel (AID 1159580);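 further: tested at 20 µM; growth read once vehicle control cultures reached saturation at 30 °C; 1 = growth at the plate median or of vehicle wells; lower values mean less growth of the strain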
# experimental setup: S. cerevisiae deletion strains, growth OD, locus YLR370C, strain arc18, hits give low values
Screen size: about 5,500 compounds; about 2,000 (36%) were called active. Roughly 18% stayed inconclusive and do not appear here. This is one part of the list.
assay endpoint: normalized growth

# compound, observed value
records = [
    ("CC(=O)Oc1ccc2c(c1C(C)C)CCC1C(C)(C)CCC[C@]21C (some centres undefined)", "1.02 (inactive)"),
    ("CC(C)c1c(O)ccc2c1CCC1[C@@](C)(C=O)CCC[C@]21C (some centres undefined)", "1.01 (inactive)"),
    ("CN[C@@H]1[C@@H](O)C(OC2[C@@H](N)C[C@@H](N)[C@H](O[C@H]3O[C@H](C(C)O)[C@@H](O)[C@H](O)[C@H]3N)[C@H]2O)OC[C@]1(C)O (some centres undefined)", "0.962 (inactive)"),
    ("CN[C@@H]1C(O)[C@@H](O[C@@H]2[C@@H](O)[C@H](O[C@H]3OC(CN)=CC[C@H]3N)[C@@H](N)C[C@H]2N)OC[C@]1(C)O (some centres undefined)", "1.02 (inactive)"),
]

----------
# test summary: chemical genetic growth profiling, strain panel (AID 1159580);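 further: tested at 20 µM; growth read once vehicle control cultures reached saturation at 30 °C; 1 = growth at the plate median or of vehicle wells; lower values mean less growth of the strain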
# experimental setup: S. cerevisiae deletion strains, growth OD, locus YOR106W, strain vam3, hits give low values
Hit rate of the full screen: of about 5,500 compounds, about 2,000 (36%) were called active. Not shown: some 18% with an inconclusive outcome. Some of the results follow. Where a SMILES comes first, the peptide text is derived from it.

# molecule, normalized growth
data = [
    ("CCC(N)C(O)c1ccc(O)c(O)c1 (stereo not given)", 0.997),
    ("COC(=O)[C@H](Cc1ccccc1)NC(=O)[C@@H](N)CC(=O)O (H-Asp-Phe-OMe)", 1.03),
    ("CC1(C)C=CC(=O)[C@@]2(C)C1CC(=O)[C@]1(C)C2CC[C@@]2(C)[C@H](c3ccoc3)OC(=O)C3OC321 (stereo not given in full)", 1),
    ("C[C@@H]1CC[C@@]2(OC1)OC1CC3C4CC=C5C[C@@H](O)CC[C@]5(C)C4CC[C@]3(C)C1[C@@H]2C (stereo not given in full)", 0.994),
    ("O=c1ccc2c(O)c3ccoc3cc2o1", 0.977),
    ("Cc1cc(OC(=O)c2c(C)cc(O)cc2O)cc(O)c1C(=O)O", 1.03),
    ("CC(=O)OC(C)C[N+](C)(C)C (stereo not given)", 0.994),
    ("CC/C(=C(/CC)c1ccc(O)cc1)c1ccc(O)cc1", 0.951),
    ("COc1cc2occc2c2oc(=O)ccc12", 0.987),
    ("CCOCN(C(=O)CCl)c1c(C)cccc1CC", 1),
    ("CCCCCC(=O)Cc1cc(O)cc(O)c1C(=O)Oc1cc(CC(=O)CCCCC)c(C(=O)O)c(OC)c1", 0.897),
    ("CCOC(=O)c1c(C)cc(OC)cc1O", 0.936),
    ("COc1ccc2ccc(=O)oc2c1", 1.01),
    ("C[C@@H]1CC[C@@]2(NC1)O[C@H]1C[C@H]3C4CC=C5C[C@@H](O)CC[C@]5(C)C4CC[C@]3(C)C1[C@@H]2C (stereo not given in full)", 0.0987),
    ("C[C@@H]1CC[C@@]2(OC1)O[C@H]1CC3C4CC[C@H]5C[C@@H](O)CC[C@]5(C)C4CC[C@]3(C)[C@H]1[C@@H]2C (stereo not given in full)", 0.983),
    ("CCC1OC(=O)[C@H](C)C(=O)[C@H](C)[C@@H](OC2O[C@H](C)C[C@H](N(C)C)[C@H]2O)[C@](C)(OC)C2(CCCn3cnc(-c4cccnc4)c3)C[C@@H](C)C(=O)[C@H](C)[C@H]3N(C2)C(=O)O[C@]13C (stereo not given in full)", 0.994),
    ("CC(=O)O[C@]1(C(C)=O)CCC2C3C=C(Cl)C4=CC(=O)[C@@H]5C[C@@H]5[C@]4(C)C3CC[C@@]21C (stereo not given in full)", 1.01),
    ("O=c1c(O)c(-c2ccc(O)c(O)c2)oc2c(O)c(O)cc(O)c12", 0.872),
    ("CC1(C)C(=O)C=C[C@@]2(C)C1C=C[C@]1(C)C2CC[C@@]2(C)[C@H](c3ccoc3)OC(=O)C3OC321 (stereo not given in full)", 0.972),
    ("CC1(C)C2CC(=O)[C@]3(C)C(CC[C@@]4(C)[C@H](c5ccoc5)OC(=O)C5OC543)[C@@]2(C)[C@@H](O)C[C@H]1O (stereo not given in full)", 1.01),
    ("CC1(C)C(=O)C=C[C@@]2(C)C1CC(=O)[C@]1(C)C2CC[C@@]2(C)[C@H](c3ccoc3)OC(=O)[C@H]3O[C@]321 (stereo not given in full)", 0.955),
    ("CNC(C)C(O)c1ccccc1 (stereo not given)", 1.03),
    ("CNC(=O)Oc1cccc2c1OC(C)(C)O2", 0.987),
    ("C[C@]12CCC3c4ccc(O)cc4CCC3C1CC[C@@H]2O (stereo not given in full)", 0.934),
    ("NC(=O)CN1CCCC1=O", 0.967),
    ("C[N+](C)(C)CC(O)CC(=O)O (stereo not given)", 0.968),
    ("CCC(=O)c1c(O)cc(O)cc1O", 0.987),
    ("CC1(C)C(=O)C=C[C@@]2(C)C1C[C@@H](O)[C@]1(C)C2CC[C@@]2(C)[C@H](c3ccoc3)OC(=O)[C@H]3O[C@]321 (stereo not given in full)", 0.996),
    ("CCCCCc1c2c(cc(O)c1C(=O)O)OC(=O)c1c(cc(OC)cc1C(=O)CCCC)O2", 0.995),
    ("CC1(C)O[C@H]2CC(=O)OC[C@]23[C@H]2CC[C@@]4(C)[C@H](c5ccoc5)OC(=O)[C@H]5O[C@]54[C@]2(C)C(=O)C[C@@H]13", 1.01),
    ("COc1cc(OC)c2ccc(=O)oc2c1", 0.95),
    ("C[C@@H]([C@H](O)c1ccccc1)N(C)C", 1.01),
    ("C=C[C@H]1CN2CC[C@H]1C[C@@H]2[C@@H](OC(=O)OCC)c1ccnc2ccc(OC)cc12", 0.934),
    ("NC(=O)c1ncn([C@@H]2O[C@H](CO)[C@@H](O)[C@H]2O)n1", 0.989),
    ("COc1ccc2c(c1)CCC1C2CCC2(C)C1C[C@@H](O)C2O (stereo not given in full)", 0.916),
    ("C[C@]12CCC3c4ccc(OS(=O)(=O)O)cc4CCC3C1CC[C@H]2O (stereo not given in full)", 0.95),
    ("O=C(O)C1=C[C@@H](O)[C@@H](O)[C@H](O)C1", 0.972),
    ("CC1CC[C@@]2(OC1)O[C@H]1CC3C4CC[C@@H]5C[C@@H](O)CC[C@]5(C)C4CC[C@]3(C)[C@H]1[C@@H]2C (stereo not given in full)", 1.04),
    ("Cc1cc(C2CCCCC2)n(O)c(=O)c1", 0.065),
    ("CCC(c1ccc(O)cc1)C(CC)c1ccc(O)cc1 (stereo not given)", 0.804),
]
